- Tested on: SK-MEL-28 melanoma
- assay_method_text: NCI-60 one-dose screen, 48 h (100 = growth as untreated, 0 = no growth, -100 = all killed)
- condition_info: 10 µM unless noted
This is part of a sample that, as a whole, favours compounds with a hit. Of some 83,000 tested, about 20% had one in any assay. Activity calls are given as the source filed them. Rule for the calls: active = growth percent below 10; inactive = the rest.
measure: growth

>>> print(df.to_string())
                                   compound    value_reported
0     O=C1/C(=C/c2ccccn2)NC(=S)N1c1ccccc1Cl    74% (inactive)
1  CC1=C2[C@@H](CC1)[C@]1(C)O[C@@](c3ccccc3)(C[C@H]1OC(=O)CO)[C@H]2OC(=O)/C=C/c1ccccc1   117% (inactive)
2  N#Cc1cccc(C2C3=C(COC3=O)N(CCO)c3cc4c(cc32)OCO4)c1 (centres undefined)  55.2% (inactive)
3  CCc1ccc(CCC(=O)Nc2ncc(Cc3cc(Cl)ccc3Cl)s2)o1  55.9% (inactive)
4         CCNc1ccc(-c2nc3ccccc3n3cccc23)cc1  86.5% (inactive)
5  CN(C)S(=O)(=O)Oc1ccc(-c2sc3cc(OS(=O)(=O)N(C)C)ccc3c2C(=O)c2ccc(OCCN3CCCCC3)cc2)cc1  57.2% (inactive)
6  Cc1ccc(C(=O)c2ccc(CC(=O)N=Nc3c(O)[nH]c4ccc(Br)cc34)n2C)cc1   102% (inactive)
7  CC1CCN(C(=O)CCCl)c2ccccc21 (centres undefined)   109% (inactive)
8  O=C(CCSc1nnc2n(Cc3ccccc3)c(=O)c3c4c(sc3n12)CCCC4)N1CCN(c2ccccc2)CC1  87.4% (inactive)
